# Test: Apparent permeability from apical to basolateral side in human Caco2 cells
# Format: ADME, cell-based
# Experimental Parameters: Caco-2
# maps each entry to its Papp A→B
The reply should contain only the number, in ×10⁻⁶ cm/s.

Worked cases, Papp A→B given:
| Chemical Structure | Result Units | Papp A→B |
| --- | --- | --- |
| Cc1ncc(CNC2CCN(CCn3c(=O)ccc4ncc(F)cc43)CC2)cc1C#N | ×10⁻⁶ cm/s | 18 |
| COc1cnc2ccc(=O)n(CCN3CC[C@H](NCc4ccc5c(n4)NC(=O)CO5)[C@H](F)C3)c2c1 | ×10⁻⁶ cm/s | 3.4 |
| Cc1ncc(CN[C@@H]2CCN(CCn3c(=O)ccc4ccc(C#N)cc43)C[C@@H]2F)cc1C#N | ×10⁻⁶ cm/s | 14.5 |
| COc1cnc2ccc(=O)n(CCN3CC[C@@H](NCc4cnc(C)c(C#N)c4)[C@@H](OC)C3)c2c1 | ×10⁻⁶ cm/s | 11.7 |
| COc1cnc2ccc(=O)n(CCN3CC[C@@H](NCc4cnc(C)c(C#N)c4)[C@@H](F)C3)c2c1 | ×10⁻⁶ cm/s | 13.6 |
| O=C1COc2ccc(CN[C@@H]3CCN(CCn4c(=O)ccc5ncc(F)cc54)C[C@@H]3F)nc2N1 | ×10⁻⁶ cm/s | 7.6 |
| COc1cc(C#N)c2ccc(=O)n(CCN3CCC(NCc4cnc(C)c(C#N)c4)CC3)c2c1 | ×10⁻⁶ cm/s | 10 |

Note: attention shifts to another entry.
Problem: Data request, read-out Papp A→B, for `Cc1ncc(CNC2CCN(CCn3c(=O)ccc4ccc(C#N)cc43)CC2)cc1C#N`
Solution: 13.6
